# Test system: T1, human EphA5 (Homo sapiens, UniProt P54756)
# T1 construct: a protein of the extracellular region of each human Eph receptor fused with the SEAP protein and the His tag; made in house; host or cells: Expi293F cells (culture supernatant)
# T1 sequence (P54756 25-573 limits assumed): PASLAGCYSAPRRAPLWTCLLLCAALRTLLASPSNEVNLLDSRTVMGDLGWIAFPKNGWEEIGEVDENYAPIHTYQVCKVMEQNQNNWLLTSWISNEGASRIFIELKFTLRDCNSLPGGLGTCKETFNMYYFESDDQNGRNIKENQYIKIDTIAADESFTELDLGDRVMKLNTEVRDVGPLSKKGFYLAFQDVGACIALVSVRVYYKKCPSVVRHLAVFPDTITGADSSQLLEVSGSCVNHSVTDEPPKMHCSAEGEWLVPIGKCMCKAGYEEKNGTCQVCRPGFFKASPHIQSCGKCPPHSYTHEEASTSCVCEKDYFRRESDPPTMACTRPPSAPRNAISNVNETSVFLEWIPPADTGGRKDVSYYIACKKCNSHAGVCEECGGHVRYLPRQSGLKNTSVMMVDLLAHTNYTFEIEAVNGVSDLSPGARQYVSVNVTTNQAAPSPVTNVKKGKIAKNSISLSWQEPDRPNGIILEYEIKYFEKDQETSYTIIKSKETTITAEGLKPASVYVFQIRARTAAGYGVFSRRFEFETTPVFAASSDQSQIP
# Measurement notes: Selectivity ELISA of humanized antibodies for human Eph receptor
# Format: binding
# Reported conditions: coated protein 1 nM
Parameter: hEphA5-SEAP-: absorbance at 450 nm, percentage with respect to hEphA4-SEAP-His as 100% (%)

INSERT INTO assay_data (molecule, unit_of_measurement, result) VALUES
  ('154 (antibody, V domains shown, synthetic humanized antibody heavy chain variable region sequence; synthetic humanized antibody light chain variable region sequence) VH: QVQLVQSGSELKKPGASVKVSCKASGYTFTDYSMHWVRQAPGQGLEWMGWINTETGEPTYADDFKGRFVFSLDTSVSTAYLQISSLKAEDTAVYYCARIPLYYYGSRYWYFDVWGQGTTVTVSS VL: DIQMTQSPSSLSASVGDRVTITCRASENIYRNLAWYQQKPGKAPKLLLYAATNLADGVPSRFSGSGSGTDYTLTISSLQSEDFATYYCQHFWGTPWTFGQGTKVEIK', '%', 6.3),
  ('143 (antibody, V domains shown, synthetic humanized antibody heavy chain variable region sequence; synthetic humanized antibody light chain variable region sequence) VH: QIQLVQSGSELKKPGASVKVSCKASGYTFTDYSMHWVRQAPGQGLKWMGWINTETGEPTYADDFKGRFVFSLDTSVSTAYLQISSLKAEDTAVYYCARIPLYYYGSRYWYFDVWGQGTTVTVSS VL: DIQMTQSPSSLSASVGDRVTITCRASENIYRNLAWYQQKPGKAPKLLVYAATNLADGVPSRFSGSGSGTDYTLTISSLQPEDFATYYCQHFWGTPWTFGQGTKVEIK', '%', 6.1);

All figures here come from patent US10428140B2.
